Source of measurements: the NIST ThermoML archive (doi:10.1021/acs.jced.8b00755)

Measured mass density values are reported for all entries that follow.
METHOD: xn = mol fraction of the nth substance listed
ASSAY_CONTEXT: 298.15 K; 101.3 kPa; Liquid; Vibrating tube method; x2 = 0.6
Unit kg/m3 implied. Number only.

Past entries and their recorded results:
MOLECULE: O=C1CCCCC1 [cyclohexanone] + CCCCCCO
READOUT_UNIT: kg/m3
mass density: 859.53
--
MOLECULE: O=C1CCCCC1 [cyclohexanone] + CCCCCCCCO
READOUT_UNIT: kg/m3
mass density: 856.69
--
MOLECULE: O=C1CCCCC1 [cyclohexanone] + CCCCO
READOUT_UNIT: kg/m3
mass density: 869.51
--
MOLECULE: O=C1CCCCC1 [cyclohexanone] + CCO
READOUT_UNIT: kg/m3
mass density: 879.92

Okay, now this molecule:
Ask: # mass density lookup, item O=C1CCCCC1 [cyclohexanone] + CCCCCCCCCCO
Reply: 853.13

====

METHOD: xn = mol fraction of the nth substance listed
ASSAY_CONTEXT: 298.15 K; 101.3 kPa; Liquid; Vibrating tube method; x2 = 0.5
REPORTED_PROPERTY: mass density (kg/m3)
Numbers only; they are read as kg/m3.

COMPOUND: O=C1CCCCC1 [cyclohexanone] + CCO
READOUT_UNIT: kg/m3
REPORTED_VALUE: 896.25

COMPOUND: O=C1CCCCC1 [cyclohexanone] + CCCCCCO
READOUT_UNIT: kg/m3
REPORTED_VALUE: 872.11

COMPOUND: O=C1CCCCC1 [cyclohexanone] + CCCCCCCCO
READOUT_UNIT: kg/m3
REPORTED_VALUE: 867.97

COMPOUND: O=C1CCCCC1 [cyclohexanone] + CCCCO
READOUT_UNIT: kg/m3
REPORTED_VALUE: 883.98

Ask: Fill in the blank: the reported mass density of O=C1CCCCC1 [cyclohexanone] + CCCCCCCCCCO is ____.
Reply: 863.79

====

METHOD: refractive index (Na D-line) (dimensionless); xn = mol fraction of the nth substance listed
ASSAY_CONTEXT: 298.15 K; 101.3 kPa; Liquid; Standard Abbe refractometry; x2 = 0.4
REPORTED_PROPERTY: refractive index
A bare number is all that is needed in reply.

Some solved cases for reference:
COMPOUND: O=C1CCCCC1 [cyclohexanone] + CCCCCCO
refractive index: 1.4332

COMPOUND: O=C1CCCCC1 [cyclohexanone] + CCCCO
refractive index: 1.4301

COMPOUND: O=C1CCCCC1 [cyclohexanone] + CCO
refractive index: 1.4268

COMPOUND: O=C1CCCC1 [cyclopentanone] + OC1CCCCC1
refractive index: 1.445

Ask: Name the reported refractive index value associated with the compound O=C1CCCCC1 [cyclohexanone] + CCCCCCCCCCO
Reply: 1.4399

Ask: Also check O=C1CCCCC1 [cyclohexanone] + CCCCCCCCO
Reply: 1.438

====

METHOD: relative permittivity at zero frequency (dimensionless); xn = mol fraction of the nth substance listed
ASSAY_CONTEXT: 298.15 K; 101.3 kPa; Liquid; Coaxial cylinder capacitor; x2 = 0.6
Entries annotated with measured relative permittivity at zero frequency
Output: the number by itself.

Examples from the recorded data:
MOLECULE: O=C1CCCCC1 [cyclohexanone] + CCCCCCCCCCO
relative permittivity at zero frequency: 9.81
//
MOLECULE: O=C1CCCCC1 [cyclohexanone] + CCO
relative permittivity at zero frequency: 18.72
//
MOLECULE: O=C1CCCC1 [cyclopentanone] + OC1CCCCC1
relative permittivity at zero frequency: 12.61
//
MOLECULE: O=C1CCCCC1 [cyclohexanone] + CCCCCCCCO
relative permittivity at zero frequency: 10.93
//
MOLECULE: O=C1CCCCC1 [cyclohexanone] + CCCCCCO
relative permittivity at zero frequency: 12.58

Ask: Need relative permittivity at zero frequency, item O=C1CCCCC1 [cyclohexanone] + CCCCO
Reply: 14.97

====

In this section, each of the compounds is paired with its reported relative permittivity at zero frequency.
METHOD: relative permittivity at zero frequency (dimensionless); xn = mol fraction of the nth substance listed
ASSAY_CONTEXT: 298.15 K; 101.3 kPa; Liquid; Coaxial cylinder capacitor; x2 = 0.2
Enter a number only.

The following compounds have reported results that may help.
COMPOUND: O=C1CCCCC1 [cyclohexanone] + CCCCCCCCCCO
REPORTED_VALUE: 13.46
--
COMPOUND: O=C1CCCCC1 [cyclohexanone] + CCO
REPORTED_VALUE: 15.98

Ask: Look up relative permittivity at zero frequency: O=C1CCCCC1 [cyclohexanone] + CCCCCCCCO
Reply: 13.74

Ask: # repeat for O=C1CCCCC1 [cyclohexanone] + CCCCO
Reply: 14.95

Ask: Entry to check: O=C1CCCC1 [cyclopentanone] + OC1CCCCC1
Reply: 12.78

Ask: Now consider O=C1CCCCC1 [cyclohexanone] + CCCCCCO and answer again.
Reply: 14.2

====

METHOD: refractive index (Na D-line) (dimensionless); xn = mol fraction of the nth substance listed
ASSAY_CONTEXT: 298.15 K; 101.3 kPa; Liquid; Standard Abbe refractometry; x2 = 0.2
REPORTED_PROPERTY: refractive index
Just the number, please.

Check out these entries, answers already filled in.
MOLECULE: O=C1CCCCC1 [cyclohexanone] + CCCCCCCCO
refractive index: 1.443
//
MOLECULE: O=C1CCCC1 [cyclopentanone] + OC1CCCCC1
refractive index: 1.4397
//
MOLECULE: O=C1CCCCC1 [cyclohexanone] + CCCCCCCCCCO
refractive index: 1.4436
//
MOLECULE: O=C1CCCCC1 [cyclohexanone] + CCCCCCO
refractive index: 1.4405

Ask: If you can, please state the reported refractive index value of O=C1CCCCC1 [cyclohexanone] + CCO .
Reply: 1.4401

Ask: Please do the same for O=C1CCCCC1 [cyclohexanone] + CCCCO as well.
Reply: 1.4396

====

Below is a list of entries, each paired with its recorded refractive index value.
METHOD: refractive index (Na D-line) (dimensionless); xn = mol fraction of the nth substance listed
ASSAY_CONTEXT: 298.15 K; 101.3 kPa; Liquid; Standard Abbe refractometry; x2 = 0.1
The response must contain the number and no unit.

COMPOUND: O=C1CCCCC1 [cyclohexanone] + CCCCCCCCCCO
refractive index: 1.4458
--
COMPOUND: O=C1CCCCC1 [cyclohexanone] + CCCCCCO
refractive index: 1.4444
--
COMPOUND: O=C1CCCCC1 [cyclohexanone] + CCCCO
refractive index: 1.4441

Ask: // lookup refractive index for O=C1CCCCC1 [cyclohexanone] + CCO
Reply: 1.4449

Ask: Param item: O=C1CCCCC1 [cyclohexanone] + CCCCCCCCO
Reply: 1.4456

Ask: And for O=C1CCCC1 [cyclopentanone] + OC1CCCCC1 ?
Reply: 1.4372

====

METHOD: relative permittivity at zero frequency (dimensionless); xn = mol fraction of the nth substance listed
ASSAY_CONTEXT: 298.15 K; 101.3 kPa; Liquid; Coaxial cylinder capacitor; x2 = 0.7
REPORTED_PROPERTY: relative permittivity at zero frequency
Number, no unit, nothing else.

COMPOUND: O=C1CCCCC1 [cyclohexanone] + CCCCCCCCO
relative permittivity at zero frequency: 10.5
//
COMPOUND: O=C1CCCCC1 [cyclohexanone] + CCCCCCCCCCO
relative permittivity at zero frequency: 9.15

Ask: Item under review: O=C1CCCC1 [cyclopentanone] + OC1CCCCC1 . Reported relative permittivity at zero frequency?
Reply: 12.99

====

METHOD: xn = mol fraction of the nth substance listed
ASSAY_CONTEXT: 298.15 K; 101.3 kPa; Liquid; Vibrating tube method; x2 = 0.8
REPORTED_PROPERTY: mass density (kg/m3)
The reply should contain only the number, in kg/m3.

COMPOUND: O=C1CCCCC1 [cyclohexanone] + CCCCCCCCCCO
REPORTED_PROPERTY: mass density
REPORTED_VALUE: 836.26

COMPOUND: O=C1CCCCC1 [cyclohexanone] + CCCCCCO
REPORTED_PROPERTY: mass density
REPORTED_VALUE: 836.36

COMPOUND: O=C1CCCCC1 [cyclohexanone] + CCO
REPORTED_PROPERTY: mass density
REPORTED_VALUE: 839.21

COMPOUND: O=C1CCCCC1 [cyclohexanone] + CCCCO
REPORTED_PROPERTY: mass density
REPORTED_VALUE: 838.96

We now examine a further compound.
Ask: mass density for O=C1CCCCC1 [cyclohexanone] + CCCCCCCCO ?
Reply: 837.29
